Data credit: the supplement of paper PMC10567573

B1: PBXIP1 (parent)
chain: LQQLRARLQGLEADCVRGPDGVCL

variants of: B1; experiment: protein stability index of a GFP-peptide fusion (GPS, HEK-293T) (PSI 1-6); higher = more stable; conditions: c terminus: a fixed tail appended;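 further: lentivirally expressed fusions sorted by FACS into six bins by GFP to DsRed ratio, PSI derived from sequencing read proportions per bin multiplied by bin number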
Decision: protein stability index compared against 3; not below it gives criterion met, below it gives criterion not met.

// below: answered variants
Quick check: does L1A have protein stability index greater than or equal to 3? criterion met

// repeat for A13C and report criterion not met

// repeat for R17V and report criterion not met

// repeat for A6V and report criterion not met

Others:
Quick check: does L24Q have protein stability index greater than or equal to 3? criterion met

// repeat for L4E and report criterion met

// repeat for Q3E and report criterion not met

// repeat for R5Y and report criterion not met

// repeat for L1Q and report criterion met
